List of TGI values.
system: HCT-15 colon; test: NCI tumour cell line growth inhibition, 48 h

Some compounds with known TGI results, for comparison:
CCOC(=O)C(C(=O)Cc1ccccc1)c1ccccc1 (configuration not stated) | > 100 µM
CC#CC(O)(C(=O)OC1CCCN(C)C1)C1=CC=CCC1 (configuration not stated) | > 100 µM

Value lookup for TGI; key = "COC(=O)CCC/C=C\C[C@H]1C=CC(=O)/C1=C/C[C@@H](O)CCc1cccc(C(F)(F)F)c1" 4.18 µM

Value lookup for TGI; key = "CCCCNc1nc(NC(C)(C)C)nc(NC(C)(C)C)n1" > 100 µM

What value of TGI has been recorded for this entry: "CCOC(=O)[C@@H](C)C[C@H](Cc1ccccc1)NC(=O)c1csc([C@@H](C[C@H](C(C)C)N(C)C(=O)[C@@H](NC(=O)[C@H]2C[C@H](O[Si](C)(C)C(C)(C)C)CCN2C)C(C)C)OC(C)=O)n1" > 5.02 µM

For the compound shown here, NC(N)=N/N=C(/c1nc2ccc([N+](=O)[O-])cc2[nH]c1=O)C(O)c1ccco1 (configuration not stated) , give the reported TGI. > 100 µM

Look up TGI: "CC(C)n1c(=O)n(-c2ccccc2)n(C(C)(C)C)c1=O" > 100 µM

Reported TGI, compound "COc1cccc(-c2nc3sccn3c2-c2ccnc(NCCNC(=O)Nc3cccc(C(F)(F)F)c3)n2)c1" : ____ 16.4 µM

Which TGI value is on record for "O=C(Nc1ccccc1)c1ccc(Cl)c([N+](=O)[O-])c1" ? 46.5 µM

Would you mind telling me what TGI value was observed for CCOC(=O)C(O)(NC(C)=O)C(F)(F)F (configuration not stated) ? > 100 µM

Fill in: TGI of "COc1cc(-c2nc3ccc(C)cc3[nH]2)ccc1OCC(=O)N=Nc1c(O)[nH]c2ccccc12" is ___ > 100 µM

Consider the compound "CN(C(=O)c1ccc(Cl)s1)C(=S)N(C)C(=O)c1ccc(Cl)s1" and give its measured TGI. > 10 µM
